- target of assay: MBP-PDZ (PDZ domain of PICK1 fused to MBP) (human, UniProt Q9NRD5 22-105)
- Sequence (Q9NRD5 22-105): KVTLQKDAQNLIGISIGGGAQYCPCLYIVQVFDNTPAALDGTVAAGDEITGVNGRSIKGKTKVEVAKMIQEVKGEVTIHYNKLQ
- assay details: ITC
parameter measured: Kd

**Q:** Consider the binder shown here: RHWLKV [DAT C-terminal tail peptide (6 aa)] What is its recorded Kd?
**A:** ~1900 nM
